ASSAYED SYSTEM: androgen receptor (AR) (Homo sapiens, UniProt P10275)
Construct: transfecting C2C12 cells with a plasmid containing full-length AR along with an AR response element linked to luciferase; expressed in transfected cells; host or cells: mouse myoblastic C2C12 cells (ATCC CRL-1772), transient transfection with Lipofectamine 2000
Sequence (P10275 1-920): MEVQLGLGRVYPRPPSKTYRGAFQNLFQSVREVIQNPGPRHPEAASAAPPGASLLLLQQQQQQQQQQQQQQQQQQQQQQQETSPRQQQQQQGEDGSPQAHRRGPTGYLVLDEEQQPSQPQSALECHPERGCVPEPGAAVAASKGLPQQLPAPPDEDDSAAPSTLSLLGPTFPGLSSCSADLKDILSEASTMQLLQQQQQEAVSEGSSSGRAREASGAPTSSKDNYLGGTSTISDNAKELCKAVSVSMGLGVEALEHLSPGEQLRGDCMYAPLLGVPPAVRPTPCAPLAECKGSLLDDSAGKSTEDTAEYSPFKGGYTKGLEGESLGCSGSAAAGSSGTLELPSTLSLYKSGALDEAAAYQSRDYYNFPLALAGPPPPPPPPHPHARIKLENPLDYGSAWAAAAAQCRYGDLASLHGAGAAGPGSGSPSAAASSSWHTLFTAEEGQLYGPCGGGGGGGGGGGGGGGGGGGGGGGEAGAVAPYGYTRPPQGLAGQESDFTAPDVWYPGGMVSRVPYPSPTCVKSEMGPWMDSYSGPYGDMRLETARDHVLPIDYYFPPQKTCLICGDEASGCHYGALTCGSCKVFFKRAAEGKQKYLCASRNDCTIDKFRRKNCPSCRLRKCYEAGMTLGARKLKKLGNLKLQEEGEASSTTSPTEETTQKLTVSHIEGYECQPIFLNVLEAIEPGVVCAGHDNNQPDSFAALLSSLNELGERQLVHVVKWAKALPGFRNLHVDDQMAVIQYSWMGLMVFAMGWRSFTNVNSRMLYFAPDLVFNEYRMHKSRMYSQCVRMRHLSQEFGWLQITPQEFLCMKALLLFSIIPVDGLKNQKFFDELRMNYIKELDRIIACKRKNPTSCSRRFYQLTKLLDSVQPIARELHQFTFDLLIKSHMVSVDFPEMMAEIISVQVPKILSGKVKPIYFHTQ
METHOD DESCRIPTION: AR transcriptional activation luciferase reporter assay in C2C12 cells (Test 1)
Type: cell-based
MEASUREMENT CONDITIONS: mouse myoblastic C2C12 cells transfected with AR-FL and 2XIDR17-luciferase; read-out: Biological activity (C2C12 cell) EC50
READOUT LABEL: EC50 (nM)
# value in nM; strip the unit string

Check out these entries, answers already filled in.
Reported EC50 (androgen receptor (AR) (Homo sapiens, UniProt P10275)) for entry `COCCO[C@@H]1C(c2ccc(C#N)c(Cl)c2C)=NN2CC[C@H](O)[C@@H]12` is 0.93

Reported EC50 (androgen receptor (AR) (Homo sapiens, UniProt P10275)) for entry `CO[C@@H]1C(c2ccc(C#N)c(Cl)c2C)=NN2CC[C@H](O)[C@@H]12` is 0.5

Now look at this entry.
Reported EC50 (androgen receptor (AR) (Homo sapiens, UniProt P10275)) for entry `CO[C@H]1CCN2N=C(c3ccc(C#N)c(Cl)c3C)[C@@H](OC)[C@H]12` is 7.1

###

ASSAYED SYSTEM: androgen receptor (AR) (Homo sapiens)
Construct: transfecting C2C12 cells with a plasmid containing full-length AR along with an AR response element linked to luciferase; expressed in transfected cells; host or cells: mouse myoblastic C2C12 cells (ATCC CRL-1772), transient transfection with Lipofectamine 2000
Sequence (P10275 1-920): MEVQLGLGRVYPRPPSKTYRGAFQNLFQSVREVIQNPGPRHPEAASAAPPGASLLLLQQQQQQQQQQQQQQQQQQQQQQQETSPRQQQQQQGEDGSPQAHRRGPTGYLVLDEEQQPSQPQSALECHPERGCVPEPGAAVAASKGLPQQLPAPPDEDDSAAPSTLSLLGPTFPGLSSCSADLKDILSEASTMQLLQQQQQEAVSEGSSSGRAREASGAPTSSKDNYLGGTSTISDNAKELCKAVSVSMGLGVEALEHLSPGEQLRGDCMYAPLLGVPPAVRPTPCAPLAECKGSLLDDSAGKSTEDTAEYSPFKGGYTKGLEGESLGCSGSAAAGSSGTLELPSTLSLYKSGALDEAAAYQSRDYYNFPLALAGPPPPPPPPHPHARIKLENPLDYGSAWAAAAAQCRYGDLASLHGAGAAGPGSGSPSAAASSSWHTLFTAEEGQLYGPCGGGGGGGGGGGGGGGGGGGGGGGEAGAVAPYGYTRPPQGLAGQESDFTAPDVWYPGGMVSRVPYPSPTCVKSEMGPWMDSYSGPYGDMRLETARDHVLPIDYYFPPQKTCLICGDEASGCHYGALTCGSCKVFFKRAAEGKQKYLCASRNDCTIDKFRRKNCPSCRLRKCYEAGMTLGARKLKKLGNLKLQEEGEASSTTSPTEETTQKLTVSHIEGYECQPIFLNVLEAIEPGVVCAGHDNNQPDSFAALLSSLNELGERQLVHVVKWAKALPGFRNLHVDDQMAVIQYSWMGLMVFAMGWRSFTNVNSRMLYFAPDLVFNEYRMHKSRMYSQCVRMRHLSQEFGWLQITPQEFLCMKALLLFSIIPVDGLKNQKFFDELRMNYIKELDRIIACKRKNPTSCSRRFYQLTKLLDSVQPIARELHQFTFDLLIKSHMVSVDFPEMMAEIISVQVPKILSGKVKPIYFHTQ
METHOD DESCRIPTION: AR transcriptional activation luciferase reporter assay in C2C12 cells (Test 1)
Format: cell-based
Mark t only for EC50 values smaller than 10 nM; exact matches and larger values are f.

Study these solved cases before continuing.
For `COCCCO[C@@H]1C(c2ccc(C#N)c(Cl)c2C)=NN2CC(F)(F)C[C@@H]12` , is the recorded EC50 below the cut-off of 10 nM?
f

For `COCCO[C@@H]1C(c2ccc(C#N)c(Cl)c2C)=NN2CC(=O)C[C@@H]12` , is the recorded EC50 below the cut-off of 10 nM?
f

For `Cc1c(C2=NN3CC[C@H](O)[C@H]3[C@@H]2O)ccc(C#N)c1Cl` , is the recorded EC50 below the cut-off of 10 nM?
f

For `CO[C@@H]1C(c2ccc(C#N)c(Cl)c2C)=NN2C[C@@H](I)C[C@@H]12` , is the recorded EC50 below the cut-off of 10 nM?
t

For `CCO[C@@H]1C(c2ccc(C#N)c(Cl)c2C)=NN2CC[C@H](O)[C@@H]12` , is the recorded EC50 below the cut-off of 10 nM?
t

Next:
For `COCCCO[C@@H]1C(c2ccc(C#N)c(Cl)c2C)=NN2C[C@H](O)C[C@@H]12` , is the recorded EC50 below the cut-off of 10 nM?
f

For `COCCCO[C@@H]1C(c2ccc(C#N)c(Cl)c2C)=NN2CC(=O)C[C@@H]12` , is the recorded EC50 below the cut-off of 10 nM?
f

###

ASSAYED SYSTEM: androgen receptor (AR) (Homo sapiens, UniProt P10275)
Construct: transfecting C2C12 cells with a plasmid containing full-length AR along with an AR response element linked to luciferase; expressed in transfected cells; host or cells: mouse myoblastic C2C12 cells (ATCC CRL-1772), transient transfection with Lipofectamine 2000
METHOD DESCRIPTION: AR transcriptional activation luciferase reporter assay in C2C12 cells (Test 1)
Type: cell-based
READOUT LABEL: EC50 (µM)
# value in µM; strip the unit string

Check out these entries, answers already filled in.
The recorded EC50 for entry COCCO[C@@H]1C(c2ccc(C#N)c(Cl)c2C)=NN2C[C@@H](F)C[C@@H]12 [Example 27] equals 0.0658

The recorded EC50 for entry CO[C@@H]1C(c2ccc(C#N)c(Cl)c2C)=NN2CC[C@@H](O)[C@@H]12 [Example 2] equals 0.0006

The recorded EC50 for entry CO[C@@H]1C(c2ccc(C#N)c(Cl)c2C)=NN2C[C@H](O)[C@H](O)[C@@H]12 [Example 25] equals 0.0512

Now look at this entry.
The recorded EC50 for entry CO[C@@H]1C(c2ccc(C#N)c(Cl)c2C)=NN2C[C@@H](F)C[C@@H]12 [Example 14] equals 0.0017

###

Reported % Biological activity (C2C12 cell) 5 μM values for a set of compounds
ASSAYED SYSTEM: androgen receptor (AR) (Homo sapiens, UniProt P10275)
Construct: transfecting C2C12 cells with a plasmid containing full-length AR along with an AR response element linked to luciferase; expressed in transfected cells; host or cells: mouse myoblastic C2C12 cells (ATCC CRL-1772), transient transfection with Lipofectamine 2000
METHOD DESCRIPTION: AR transcriptional activation luciferase reporter assay in C2C12 cells (Test 1)
Format: cell-based
MEASUREMENT CONDITIONS: 5 μM compound; activity relative to 1 μM DHT
# value in %; strip the unit string

Reported % Biological activity (C2C12 cell) 5 μM (androgen receptor (AR) (Homo sapiens, UniProt P10275)) for entry `Cc1c(C2=NN3CC[C@@H](O)[C@H]3[C@@H]2O)ccc(C#N)c1Cl` is 32

Reported % Biological activity (C2C12 cell) 5 μM (androgen receptor (AR) (Homo sapiens, UniProt P10275)) for entry `Cc1c(C2=NN3CC[C@H](O)[C@H]3[C@@H]2OCC2CC2)ccc(C#N)c1Cl` is 100

Reported % Biological activity (C2C12 cell) 5 μM (androgen receptor (AR) (Homo sapiens, UniProt P10275)) for entry `Cc1c(C2=NN3C[C@H](O)C[C@H]3[C@@H]2O)ccc(C#N)c1Cl` is 2

Now look at this entry.
Reported % Biological activity (C2C12 cell) 5 μM (androgen receptor (AR) (Homo sapiens, UniProt P10275)) for entry CO[C@@H]1C(c2ccc(C#N)c(Cl)c2C)=NN2CC(O)(C(F)(F)F)C[C@@H]12 (stereo partly shown) is 33
